System: M14
Assay: Cytotoxicity against human M14 cells assessed as cell growth at 10 uM after 48 hrs by SRB assay relative to control
Type: functional
Conditions: M14, 48 h, read-out: Activity
Attribute Measured: growth at 10 µM (%)
Answer with a number only, understood to be in %.

Some solved cases for reference:
CC(C)n1cc(C2=C(c3c[nH]c4ccccc34)C(=O)N(O)C2=O)c2ccccc21 = 98.9
N#CCCCCCn1cc(C2=C(c3cn(CCCCCC#N)c4ccccc34)C(=O)NC2=O)c2ccccc21 = 125
CC(C)n1cc(C2=C(c3cn(C)c4ccccc34)C(=O)N(O)C2=O)c2ccccc21 = 94.8
O=C1C2=C(C(=O)N1O)c1cn(c3ccccc13)CCCCCCn1cc2c2ccccc21 = 102
Cn1cc(C2=C(c3cn(CCCCCC#N)c4ccccc34)C(=O)N(O)C2=O)c2ccccc21 = 100

Query (compound): Cn1cc(C2=C(c3cn(CCCCCC(=O)O)c4ccccc34)C(=O)N(O)C2=O)c2ccccc21 ; field requested: growth at 10 µM
103

Requested field: growth at 10 µM. Item: Cn1cc(C2=C(c3c[nH]c4ccccc34)C(=O)N(O)C2=O)c2ccccc21
81

Entry under review: Cn1cc(C2=C(c3cn(C)c4ccccc34)C(=O)N(O)C2=O)c2ccccc21 . Reported growth at 10 µM?
105

// growth at 10 µM lookup, key: O=C(O)CCCCCn1cc(C2=C(c3c[nH]c4ccccc34)C(=O)N(O)C2=O)c2ccccc21
92.9
